# IC50 per record follows
# ASSAYED_SYSTEM: Pin1 (Homo sapiens, UniProt Q13526)
# Sequence (Q13526 whole entry): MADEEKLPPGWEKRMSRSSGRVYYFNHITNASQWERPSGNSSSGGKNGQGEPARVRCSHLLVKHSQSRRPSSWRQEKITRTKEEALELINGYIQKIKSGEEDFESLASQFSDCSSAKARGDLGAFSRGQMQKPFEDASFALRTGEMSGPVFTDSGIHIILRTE
# METHOD_SUMMARY: Pin1 fluorescence polarization competition assay with Tamra-probe (secondary)
Write the answer as a number in µM, unit excluded.

Enquiry: // Input: Cc1ccc(C)c2c1NC(C(=O)O)C1CC=CC21 (centres unmarked) . Output its IC50 only.
Return: 14

Enquiry: // Input: O=C(O)c1cc(Cl)c2c(c1)[C@@H]1C=CC[C@@H]1[C@H](c1ccc(S(=O)(=O)N3CCOCC3)cc1)N2 . Output its IC50 only.
Return: 19

Enquiry: // Input: C=CCOc1ccc(C(c2c(C(=O)O)[nH]c3ccccc23)c2c(C(=O)O)[nH]c3ccccc23)cc1 . Output its IC50 only.
Return: 21

Enquiry: // Input: O=C(O)C1Nc2ccc(Br)cc2C2C=CCC12 (centres unmarked) . Output its IC50 only.
Return: 11

Enquiry: // Input: COc1ccc(NC(=O)CN(C)C(=O)c2cc3c(s2)CCC3)cc1 . Output its IC50 only.
Return: 21

Enquiry: // Input: N#Cc1no[n+]([O-])c1C(=O)c1cccs1 . Output its IC50 only.
Return: 2

Enquiry: // Input: O=C(O)C1Nc2c(C(F)(F)F)ccc(Cl)c2C2C=CCC12 (centres unmarked) . Output its IC50 only.
Return: 18

Enquiry: // Input: O=C(O)C1Nc2c(O)cccc2C2C=CCC12 (centres unmarked) . Output its IC50 only.
Return: 11

* * *

# ASSAYED_SYSTEM: UniProt Q13526
# METHOD_SUMMARY: Pin1 fluorescence polarization competition assay with Tamra-probe (secondary)
# CONDITION_LABEL: Tamra-probe
# Tamra Secondary Curve Class per record follows

Use these answered entries as a reference point.
- COMPOUND: "O=C(O)c1cc(Cl)c2c(c1)[C@@H]1C=CC[C@@H]1[C@H](c1ccc(S(=O)(=O)N3CCOCC3)cc1)N2 [Compound 41]"
  Tamra Secondary Curve Class: "2.2 (≤80% (class 2.2))"
- COMPOUND: "O=C(O)c1cccc2c1NC(C(=O)O)C1CC(Sc3ccccc3[N+](=O)[O-])C(Cl)C21 (centres unmarked) [Compound 3]"
  Tamra Secondary Curve Class: "1.2 (≤80% (class 1.2))"
- COMPOUND: "O=C(O)c1[nH]c2ccccc2c1C(c1cc(Br)ccc1O)c1c(C(=O)O)[nH]c2ccccc12 [Compound 43]"
  Tamra Secondary Curve Class: 3.0
- COMPOUND: "CCCCCCCCCCCCN1[C@@H](C(=O)O)c2cc(C(F)(F)F)ccc2S1(=O)=O [Compound 34]"
  Tamra Secondary Curve Class: 3.0
- COMPOUND: "COc1ccc(NC(=O)CN(C)C(O)c2cc(-c3ccco3)nc3ccccc23)cc1 (centres unmarked) [Compound 39]"
  Tamra Secondary Curve Class: 3.0

Enquiry: // Input: O=C(O)c1[nH]c2ccccc2c1C(c1cc(Cl)cc([N+](=O)[O-])c1O)c1c(C(=O)O)[nH]c2ccccc12 [Compound 44] . Output its Tamra Secondary Curve Class only.
Return: 2.2 (≤80% (class 2.2))

Enquiry: // Input: O=C(O)Cc1c[nH]c2cccc(O)c12 [Compound 23] . Output its Tamra Secondary Curve Class only.
Return: 2.2 (≤80% (class 2.2))

Enquiry: // Input: O=C(O)C1Nc2c(O)cc(Cl)c([N+](=O)[O-])c2C2C=CCC12 (centres unmarked) [Compound 2] . Output its Tamra Secondary Curve Class only.
Return: 1.2 (≤80% (class 1.2))
